# procedure-text: NCI Yeast Anticancer Drug Screen. Data for the mec2-1 strain (AID 157)
# assay-setup: S. cerevisiae mec2-1 strain, at 5.0 µM (retest, dose inferred, filed as 0.5)
The panel holds about 79,000 compounds, 15% with a hit somewhere; the sample as a whole holds those more often. Calls of active or inactive are those of the source. Rule as the data show it: active = growth inhibition above about 70%; inactive = the rest.
Please reply with one of these outcomes: active, inactive

Please state the recorded outcome for this compound: "Cc1c(N=Nc2ccc(Br)cc2)c(-c2ccccc2)nn1C(N)=S"
inactive

Which outcome did this test record for the compound "C=CCNC(=O)NC(=O)CSC1=NNC2(C(=O)N1)c1ccccc1-c1ccccc12" ?
inactive

Hi, do you know how "S=C(NCc1ccccc1)N/N=C/c1ccccn1" came out in this test?
inactive

Hi, sorry to bother you, what did the test record for CC(=O)OC1SC(C)(C)n2c1nc1ccccc1c2=O (stereo not given) ?
inactive

So what was the verdict on N#CC(C(=O)CCc1nc2ccccc2[nH]1)c1c(Cl)cccc1Cl (stereo not given) in this test?
inactive

I'd appreciate the recorded outcome for "Cc1ccc2nc(C[n+]3cccc4ccccc43)ccc2c1" from this test.
active

Which outcome was entered for the compound CCCCCCCCCCCC1=NCC(C)N1 (stereo not given) in this test?
inactive

All values here come from PubChem BioAssay (NCI).
